# assay_procedure: qHTS assay for MDR1-selective chemotherapeutics: Primary screen using the parental adenocarcinoma cell KB-3-1; further: nearly all actives have a fitted effect of over 60% in size
# condition_summary: KB-3-1 viability, CellTiter-Glo ATP luminescence, 72 h; series mostly up to 46.1 µM
Among all 400,000 compounds or so, about 5,500 (1.4%) were called active. Roughly 9% stayed inconclusive and do not appear here. This is one part of a sample in which actives are shown more often than they occur.

| smiles_entry | outcome |
| --- | --- |
| CCOC(=O)c1c(N)n(Cc2ccccc2)c2nc3ccccc3nc12 | inactive |
| c1ccc(N2Cc3ccccc3-n3nncc3C2)nc1 | inactive |
| COC(=O)C1=C(c2ccccc2)C[C@@H]2CC[C@H]1N2C(=O)NCc1ccco1 | inactive |

* * *

# assay_procedure: qHTS assay for MDR1-selective chemotherapeutics: Primary screen using the parental adenocarcinoma cell KB-3-1; further: nearly all actives have a fitted effect of over 60% in size
# condition_summary: KB-3-1 viability, CellTiter-Glo ATP luminescence, 72 h; series mostly up to 46.1 µM
Out of some 400,000 compounds screened, about 5,500 (1.4%) were called active. Roughly 9% stayed inconclusive and do not appear here. The call rests on the fitted dose curve; in most records, active means well fitted cell-killing curve with a large enough effect; inconclusive means small, poorly fitted or top-dose-only effect, or effect the other way; inactive means flat fitted curve, though single readings scatter. Only a selection was taken, and actives are over-represented in it overall.
Return exactly one item of 1.0 for active, 0.0 for inactive

| compound | label_value |
| --- | --- |
| C[C@]12CCC3C(CC[C@H]4C[C@@H](O)CC[C@]34C)C1CC[C@@H]2O (stereo partly specified) | 0.0 |

// query Any idea what this test logged for CCOC(=O)[C@]12Cc3ccccc3[C@H]1N(C1CCCCC1)C(=O)c1cc(OC)ccc12 ?
// result 1.0

// query Any idea what this test logged for Cc1nnc(NC(=O)c2cccn(Cc3cccc(F)c3)c2=O)s1 ?
// result 0.0

// query Any idea what this test logged for S=C(NCCc1ccccc1)N1Cc2cc(N3CCOCC3)ccc2-n2nncc2C1 ?
// result 0.0

* * *

# assay_procedure: qHTS assay for MDR1-selective chemotherapeutics: Primary screen using the parental adenocarcinoma cell KB-3-1; further: nearly all actives have a fitted effect of over 60% in size
# condition_summary: KB-3-1 viability, CellTiter-Glo ATP luminescence, 72 h; series mostly up to 46.1 µM
Hit rate of the full screen: of about 400,000 compounds, about 5,500 (1.4%) were called active. Not shown: some 9% with an inconclusive outcome. The sample as a whole holds a higher share of actives than the screen did.
readout_label: outcome

// below: answered compounds
| compound | readout_label | assay_value |
| --- | --- | --- |
| COc1ccc(NC(=O)N2Cc3ccccc3-n3nncc3C2)cc1 | outcome | inactive |
| O=c1[nH]c2ccccc2n1C1CCN(C(c2ccnc3ccccc23)c2nnnn2Cc2ccccc2)CC1 (stereo unspecified) | outcome | inactive |
| COc1cccc(C(c2nnnn2-c2ccc3c(c2)OCCO3)N2CCC3(CC2)C(=O)NCN3c2ccccc2)c1OC (stereo unspecified) | outcome | inactive |
| Cn1cc(/C=C/c2nc3ccccc3c(=O)n2-c2ccccc2)c2ccccc21 | outcome | inactive |
| O=C(O)/C=C/c1ccc2c(c1)OCO2 | outcome | inactive |

Next item in the queue.
// query Returns the measured outcome for the input compound. Input: O=c1c2ccccc2[nH]c(=S)n1-c1cccc(Cl)c1
// result inactive

* * *

# assay_procedure: qHTS assay for MDR1-selective chemotherapeutics: Primary screen using the parental adenocarcinoma cell KB-3-1; further: nearly all actives have a fitted effect of over 60% in size; further: potency means the concentration at half of the fitted maximal effect
# condition_summary: KB-3-1 viability, CellTiter-Glo ATP luminescence, 72 h; series mostly up to 46.1 µM
In all, about 400,000 compounds went through this assay and about 5,500 (1.4%) were called active. Another 9% or so got no clear call; they are omitted. The entries come from a sample that favours actives as a whole.
readout_label: Potency

| compound | assay_value |
| --- | --- |
| COC1C(O)C(C)OC(OC2CCC3(C=O)C(CCC4C3CCC3(C)C(C5=CC(=O)OC5)CCC43O)C2)C1O (configuration not stated) | 5.8 nM (active) |
| C[C@]12CCC3C(CC[C@H]4C[C@@H](O)CC[C@]34C)C1C[C@@H](O)[C@H]2O (some centres not stated) | inactive |
| C[C@]12CC[C@H](O)C[C@H]1CC[C@@H]1C2CC[C@]2(C)[C@@H](C3=CC(=O)OC3)[C@@H](O)C[C@]12O (some centres not stated) | 2310 nM (active) |
| COC(=O)CN(CCCl)P1(=O)OCCCN1CCCl (configuration not stated) | inactive |
| CCCCCCCCCCCCn1ccc(=N)cc1 | 1300 nM (active) |
| CCOC(=O)[C@]12Cc3cc(OC)ccc3[C@H]1N(C(C)C)C(=O)c1ccccc12 | 6510 nM (active) |

// each listed compound needs a value for Potency
1. CCn1cc(CN2CCCC(C(=O)c3cccc(C(F)(F)F)c3)C2)cn1 (configuration not stated)
2. CCOC(=O)CNC(=O)N1Cc2cc(N3CCCCC3)ccc2-n2nncc2C1
3. O=P(OC1=CCCCC1)(c1ccccc1)c1ccccc1
4. Cc1ccc(NC(=O)N(Cc2ccc3c(c2)OCO3)C2CCN(Cc3ccccc3)CC2)cc1F
5. Cc1ccc(OC(=O)N(C)C[C@@H]2OCc3cnnn3CCCC(=O)N([C@H](C)CO)C[C@@H]2C)cc1
6. CC(C)CN1Cc2cc(N3CCCCC3)ccc2-n2nncc2C1
7. CCC(=NCCCO)c1c(O)n(-c2ccc(OC)cc2)c(=O)[nH]c1=O

// result
["inactive", "inactive", "inactive", "inactive", "inactive", "inactive", "inactive"]

// each listed compound needs a value for Potency
1. COc1cc(C(=O)N2Cc3ccc(Br)cc3-n3nncc3C2)cc(OC)c1OC
2. CCCCn1c(O)c(C(CC)=NCc2ccco2)c(=O)[nH]c1=O
3. O=C1C2CCN(CC2)C1(CO)CO

// result
inactive
inactive
inactive

// query Returns the measured Potency for the input compound. Input: C[C@H]1CN([C@@H](C)CO)C(=O)CCCn2nncc2CO[C@H]1CN(C)C(=O)Oc1cccc2ccccc12
// result inactive
